Ref: patent US20120172293A1

- Target under test: T1, human Y2 receptor (human, UniProt P49146 1-381)
- T1 construct: whole, on cells; used as membrane fraction of hY2R/CHO cells; also called human NPY2R; hY2R
- T1 sequence (looked up): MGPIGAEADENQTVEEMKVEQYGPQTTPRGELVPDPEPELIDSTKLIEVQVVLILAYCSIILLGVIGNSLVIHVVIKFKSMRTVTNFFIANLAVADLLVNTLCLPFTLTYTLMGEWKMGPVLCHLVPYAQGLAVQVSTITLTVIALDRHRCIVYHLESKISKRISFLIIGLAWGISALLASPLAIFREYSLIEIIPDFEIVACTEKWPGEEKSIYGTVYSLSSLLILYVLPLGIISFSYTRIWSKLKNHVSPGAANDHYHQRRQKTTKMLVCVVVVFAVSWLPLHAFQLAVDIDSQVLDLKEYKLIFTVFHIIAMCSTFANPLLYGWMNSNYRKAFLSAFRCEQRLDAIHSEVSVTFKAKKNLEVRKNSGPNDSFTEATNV
- Protocol text: RBA: [125I]-PYY displacement, hY2R/CHO membranes
- Experimental: After incubation at room temperature for 60 minutes, the mixture was filtered through the cell harvester FilterMate (PerkinElmer) using UniFilter-96 GF/C treated with polyethylenimine (PEI) solution (20 mM Tris, 0.3% PEI, pH 7.4), and the filter was washed 3 times with a filtering buffer (50 mM Tris, 5 mM MgCl₂, 150 mM NaCl, 0.03% NaN₃, 0.05% CHAPS, pH 7.4). […] The data obtained were analyzed using Prism to calculate the IC₅₀ value.
Non-standard residues stand in square brackets, D forms with d. No end group written: not given here. Phe(2-F) = N[C@@H](Cc1ccccc1F)C(=O)O; Cha = N[C@@H](CC1CCCCC1)C(=O)O; 4Amb = NCc1ccc(C(=O)O)cc1; Aib = CC(C)(N)C(=O)O
Assay metric: IC50 Ratio (vs PYY(3-36)) (ratio)
Please respond with the number in ratio and leave the unit unwritten.

What does the record list as IC50 Ratio (vs PYY(3-36)) for Ac-S[dP]RH[Cha][Cha]NL[Aib]TRQR[Phe(2-F)]-NH2 (SMILES CC(=O)N[C@@H](CO)C(=O)N1CCC[C@@H]1C(=O)N[C@@H](CCCNC(=N)N)C(=O)N[C@@H](Cc1c[nH]cn1)C(=O)N[C@@H](CC1CCCCC1)C(=O)N[C@@H](CC1CCCCC1)C(=O)N[C@@H](CC(N)=O)C(=O)N[C@@H](CC(C)C)C(=O)NC(C)(C)C(=O)N[C@H](C(=O)N[C@@H](CCCNC(=N)N)C(=O)N[C@@H](CCC(N)=O)C(=O)N[C@@H](CCCNC(=N)N)C(=O)N[C@@H](Cc1ccccc1F)C(N)=O)[C@@H](C)O, also called compound No. 194) [Ac-[D-Pro24, Cha27,28, Aib31, Phe(2F)36]-PYY(23-36)] ? 1.4

Same for [4Amb]RAYINFITRQRY-NH2 (N-terminus assumed; SMILES CC[C@H](C)[C@H](NC(=O)[C@H](Cc1ccc(O)cc1)NC(=O)[C@H](C)NC(=O)[C@H](CCCNC(=N)N)NC(=O)c1ccc(CN)cc1)C(=O)N[C@@H](CC(N)=O)C(=O)N[C@@H](Cc1ccccc1)C(=O)N[C@H](C(=O)N[C@H](C(=O)N[C@@H](CCCNC(=N)N)C(=O)N[C@@H](CCC(N)=O)C(=O)N[C@@H](CCCNC(=N)N)C(=O)N[C@@H](Cc1ccc(O)cc1)C(N)=O)[C@@H](C)O)[C@@H](C)CC, also called compound No. 54) [4-Aminomethylbenzoyl-[Ala26, Ile28,31, Phe30]-PYY(25-36)] 5.7
